Each record here notes measured fold change.
# ASSAY: viability loss with induced miR-34 in A549 – imaging, A549 dox-inducible miR-34, nuclei and caspase counts, primary screen (AID 1347080)
# CONDITION_SET: A549 miR-34 inducible, Hoechst nuclei count, 48 h; stronger effect = lower value; cell number ratio, induced over uninduced
# print the numeric value only

Here are 2 compounds together with their reported answers.
Exam item: // fold change lookup, key: `NC(N)=NN=Cc1c(Cl)cccc1Cl`
Marked response: 0.921

Exam item: Could you do the same for `COc1cc(N)c(Cl)cc1C(=O)N[C@H]1CCN(CCCOc2ccc(F)cc2)C[C@H]1OC` , please?
Marked response: 0.886

Further cases:
Exam item: // fold change lookup, key: CC[N+](CC)(CC)CCC(O)(c1ccccc1)C1CCCCC1 (centres undefined)
Marked response: 0.878

Exam item: Could you do the same for Nc1ncnc2c1ncn2C1OC(CO)CC1O (centres undefined) , please?
Marked response: 0.896

Exam item: Could you do the same for COc1ccc(CC(NC(=O)C(C)NC(=O)CN2CCOCC2)C(=O)NC(Cc2ccccc2)C(=O)[C@]2(C)CO2)cc1 (some centres undefined) , please?
Marked response: 1.43

Exam item: Could you do the same for CC(C)C(C(=O)Nc1ccc(C(=O)NO)cc1)c1ccccc1 (centres undefined) , please?
Marked response: 0.964

Exam item: Could you do the same for CCC(=O)OCC(=O)C1(OC(=O)CC)[C@H](C)C[C@H]2[C@H]3[C@H]([C@@H](O)C[C@@]21C)[C@@]1(C)C=CC(=O)C=C1C[C@H]3Cl (some centres undefined) , please?
Marked response: 0.785

Exam item: Could you do the same for CCOC(=O)O[C@@]1(C(=O)OCCl)CC[C@H]2[C@@H]3CCC4=CC(=O)C=C[C@]4(C)[C@@H]3C(O)C[C@@]21C (some centres undefined) , please?
Marked response: 0.859

Exam item: Could you do the same for `O=C1CN(C(=O)c2ccncc2)CCN1Cc1ccc2c(c1)OCO2` , please?
Marked response: 0.914

Exam item: Could you do the same for CN(C)c1cc(NC(=O)CNC(C)(C)C)c(O)c2c1C[C@H]1C[C@H]3C(N(C)C)C(=O)C(C(N)=O)=C(O)[C@@]3(O)C(=O)C1=C2O (some centres undefined) , please?
Marked response: 0.917

Exam item: Could you do the same for `Cc1cc2nc3[nH]c(=O)[nH]c(=O)c3nc2cc1C` , please?
Marked response: 0.917

Exam item: Could you do the same for `O=C1C(Cl)=C(N2CCOCC2)C(=O)N1c1ccc(Cl)c(Cl)c1` , please?
Marked response: 0.939

Exam item: Could you do the same for `C=CCNc1ncnc2ccc(Br)cc12` , please?
Marked response: 0.949

Exam item: Could you do the same for `Cc1nc(NC(=O)NCc2cccc(C(F)(F)F)c2)nn1C` , please?
Marked response: 0.922

====

# ASSAY: CRL1545 cell growth, single agent and combined, cisplatin and BGB IC20 combos (AID 1671464);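 further: cells exposed to compound for 96 hours before readout; 0% = vehicle DMSO and 100% = high DMSO killing control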
# CONDITION_SET: CRL1545 osteosarcoma cells, measured here: with cisplatin IC20 combination, at 0.5 µM, stronger effect = higher value
Non-standard residues stand in square brackets, D forms with d. Residues, ends and D or L forms follow the SMILES beside them. Dolaproine = CO[C@@H]([C@@H]1CCCN1)[C@@H](C)C(=O)O; Dil = CC[C@H](C)[C@H](NC)[C@@H](CC(=O)O)OC; NMeV = CN[C@H](C(=O)O)C(C)C
PARAMETER: inhibition (%)
Report the figure in % without appending any unit label.

Exam item: // inhibition lookup, key: `O=c1[nH]c(=S)[nH]c2nc(-c3ccccc3)c(-c3ccccc3)nc12`
Marked response: -18.2

Exam item: Could you do the same for CCC(Sc1nnc2c3ccccc3n(CC)c2n1)C(=O)Nc1ccccc1OC (stereo not drawn) , please?
Marked response: -13

Exam item: Could you do the same for `O=c1cc(-c2ccc(O)cc2)[nH]c(=S)[nH]1` , please?
Marked response: -20.3

Exam item: Could you do the same for CC[C@H](C)[C@@H]([C@@H](CC(=O)N1CCC[C@H]1[C@H](OC)[C@@H](C)C(=O)N[C@@H](Cc1ccccc1)C(=O)O)OC)N(C)C(=O)[C@@H](NC(=O)[C@@H](NC)C(C)C)C(C)C (H-[NMeV]V[Dil][Dolaproine]F-OH) , please?
Marked response: 39.4

Exam item: Could you do the same for `Nc1nc(NC2CC2)cc(-c2cccc(Cl)c2Cl)n1` , please?
Marked response: -46.8

Exam item: Could you do the same for CC1CN(c2c(F)c(N)c3c(=O)c(C(=O)O)cn(C4CC4)c3c2F)CC(C)N1 (stereo not drawn) , please?
Marked response: -10.9

Exam item: Could you do the same for O=C(CCSc1nc2ccccc2c(=O)[nH]1)NC1CCC(c2nnc(-c3ccccc3)o2)CC1 (stereo not drawn) , please?
Marked response: -20

Attention now shifts to the item below.
Exam item: // inhibition lookup, key: `C=C1C(=O)O[C@@H]2C=C(C)CCC=C(C)CC[C@@H]12`
Marked response: 21.4

====

# ASSAY: growth inhibition, MDA-MB-436, cell-based, BGB or cisplatin combos, synergistic combos for chromothripsis tumors (AID 1671458);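 further: cells exposed for 96 hours; 0% = vehicle DMSO and 100% = killing by high DMSO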
# CONDITION_SET: MDA-MB-436 breast carcinoma growth inhibition, drug combinations; measured here: cisplatin combination; at 5 µM; stronger effect = higher value
PARAMETER: inhibition (%)
Report the figure in % without appending any unit label.

Exam item: // inhibition lookup, key: `Cn1cc(-c2cnn3c(N)c(Br)c([C@H]4CCCNC4)nc23)cn1`
Marked response: 73.3

Exam item: Could you do the same for Nc1ncn(C2OC(CO)C(O)C2O)c(=O)n1 (stereo unspecified) , please?
Marked response: 23.8

Exam item: Could you do the same for `C[C@@H]1O[C@@H](O[C@@H]2[C@@H](O)[C@H](OCCc3ccc(O)c(O)c3)O[C@H](CO)[C@H]2OC(=O)C=Cc2ccc(O)c(O)c2)[C@H](O)[C@H](O)[C@H]1O` , please?
Marked response: -30.4

Exam item: Could you do the same for `CO[C@H]1/C=C/O[C@@]2(C)Oc3c(C)c(O)c4c(O)c(c5c(c4c3C2=O)=NC2(CCN(CC(C)C)CC2)N=5)NC(=O)/C(C)=C\C=C\[C@H](C)[C@H](O)[C@@H](C)[C@@H](O)[C@@H](C)[C@H](OC(C)=O)[C@@H]1C` , please?
Marked response: -1.97

Exam item: Could you do the same for `COc1ccccc1S(=O)(=O)Nc1ccc2c(c1)CN(C)C(=O)N2` , please?
Marked response: -10.1

Exam item: Could you do the same for CON=C1CN(c2nc3c(cc2F)c(=O)c(C(=O)O)cn3C2CC2)CC1CN (stereo unspecified) , please?
Marked response: -9.24

Exam item: Could you do the same for COc1cccc2c1C(=O)c1c(O)c3c(c(O)c1C2=O)CC(O)(C(C)=O)CC3OC1CC(N)C(O)C(C)O1 (stereo unspecified) , please?
Marked response: 95.1

Exam item: Could you do the same for CC1CNC(=O)NC1=O (stereo unspecified) , please?
Marked response: -4.6

Further cases:
Exam item: // inhibition lookup, key: CC(C=CC(=O)NO)=CC(C)C(=O)c1ccc(N(C)C)cc1 (stereo unspecified)
Marked response: 81.3

Exam item: Could you do the same for CC1CN(c2c(F)c(N)c3c(=O)c(C(=O)O)cn(C4CC4)c3c2F)CC(C)N1 (stereo unspecified) , please?
Marked response: -5.2

Exam item: Could you do the same for CC(Oc1cc(-c2cnn(C3CCNCC3)c2)cnc1N)c1c(Cl)ccc(F)c1Cl (stereo unspecified) , please?
Marked response: 29.4

====

# ASSAY: viability loss with induced miR-34 in A549 – imaging, A549 dox-inducible miR-34, nuclei and caspase counts, primary screen (AID 1347080)
# CONDITION_SET: A549 miR-34 inducible, Hoechst nuclei count, 48 h; measured here: relative caspase fold change +Dox/-Dox
Doc: threshold 1 (exclusive). Items with fold change beneath it return 1 (yes); others return 0 (no).

Exam item: Report whether reported fold change is lower than 1 (strictly) for CCC1OC(=O)C(C)C(OC2C[C@@](C)(OC)C(O)C(C)O2)C(C)C(OC2OC(C)CC(N(C)C)C2O)[C@@](C)(O)CC(C)C(=O)C(C)C(O)[C@]1(C)O (some centres undefined)
Marked response: 0 (no)

Exam item: Could you do the same for CCC(=O)OCC(=O)[C@]1(OC(=O)CC)C(C)C[C@H]2[C@@H]3CCC4=CC(=O)C=C[C@]4(C)[C@]3(Cl)C(O)C[C@@]21C (some centres undefined) , please?
Marked response: 1 (yes)

Exam item: Could you do the same for `COc1cccc2ccc(-c3coc4ccccc4c3=O)nc12` , please?
Marked response: 1 (yes)

Exam item: Could you do the same for CC(C)SC1OC(CO)C(O)C(O)C1O (centres undefined) , please?
Marked response: 1 (yes)

Further cases:
Exam item: Report whether reported fold change is lower than 1 (strictly) for `O[C@H]1[C@H](O)[C@@H](O)[C@@H]2O[C@@H]2[C@@H]1O`
Marked response: 0 (no)

Exam item: Could you do the same for c1cc(CN2CCN3CCCC3C2)n(-c2nccs2)c1 (centres undefined) , please?
Marked response: 0 (no)

Exam item: Could you do the same for `CCc1ccc(C=C2SC(=S)NC2=O)cc1` , please?
Marked response: 1 (yes)

Exam item: Could you do the same for `Cc1cc(C(=O)NNCc2ccccc2)no1` , please?
Marked response: 0 (no)

Exam item: Could you do the same for `COc1ccc(OC)c(-c2nc3ccccc3o2)c1` , please?
Marked response: 0 (no)
